// read-out IC50, gathered for Dihydroorotate dehydrogenase (quinone), mitochondrial (Homo sapiens) from published studies
IC50 strictly less than 0.06 µM = satisfied. Otherwise not satisfied.

A record lists `O=C(O)c1cc(F)cc2[nH]c(-c3ccc(-c4cccnc4)cc3)nc12` . Is its IC50 below 0.06 µM?
not satisfied

Follow-up item: `C=C(C)c1cn(-c2ccccc2F)c(=O)c2cc(F)c(-n3nc(CO)n(CC)c3=O)cc12`
satisfied

Then what about the molecule `O=C(O)c1cccc2cc(-c3ccc(-c4ccccc4)cc3)[nH]c12` ?
not satisfied

Please give the result for `CCn1c(CO)nn(-c2cc3c(C(C)C)cn(CC4CC4)c(=O)c3cc2F)c1=O` too.
satisfied

Can you check `Cc1ccc(Nc2ccc(-c3c(F)cccc3F)nc2)c(C(=O)O)c1` next?
satisfied

###

Please find below pIC50 measurements for Dihydroorotate dehydrogenase (quinone), mitochondrial (Homo sapiens), combined from several publications.
Numbers only, as −log10 of the molar value.

// solved cases for pIC50 follow
>>> print(df.to_string())
                                  smilesstr                                  testedon  assayresult
0  COc1cccc(-c2ccc(-c3nc4c(C(=O)O)cccc4[nH]3)c(F)c2)c1  Dihydroorotate dehydrogenase (quinone), mitochondrial (Homo sapiens)         6.43
1  CCn1c(CO)nn(-c2cc3c(C(C)C)cc(-c4ccnc(O)c4C)nc3cc2F)c1=O  Dihydroorotate dehydrogenase (quinone), mitochondrial (Homo sapiens)         8.41
2  CCOc1cccc(-c2ccc(Nc3ccc(C)cc3C(=O)O)cn2)c1  Dihydroorotate dehydrogenase (quinone), mitochondrial (Homo sapiens)         6.72
3  C=C(C)c1cn(-c2ccccc2C(F)(F)F)c(=O)c2ccc(-n3nc(CO)n(CC)c3=O)cc12  Dihydroorotate dehydrogenase (quinone), mitochondrial (Homo sapiens)         8.64
4  Cc1cc(C(=O)O)c2nc(-c3c(F)cc(-c4ccccc4)cc3F)[nH]c2c1  Dihydroorotate dehydrogenase (quinone), mitochondrial (Homo sapiens)         6.75
5  CCn1c(CO)nn(-c2cc3c(C(C)C)cc(-c4c(C)ccnc4OC)nc3cc2F)c1=O  Dihydroorotate dehydrogenase (quinone), mitochondrial (Homo sapiens)         7.49

In the following, a different compound is considered.
Entry `Cc1ccc(Nc2cnc(-c3ccccc3)c(C)c2)c(C(=O)O)c1` has what pIC50?
7.28

###

Literature roundup of Dihydroorotate dehydrogenase (quinone), mitochondrial (Homo sapiens, UniProt Q02127) data, read-out pIC50.
Give bare numbers, as −log10 of the molar value.

Here's what some known entries look like.
>>> print(df.to_string())
                                  smilesstr  assayresult
0  CCn1c(CO)nn(-c2cc3c(cc2F)C(=O)N(c2c(F)cncc2C#N)CN3C(C)C)c1=O         7.52
1  CCN(CC)c1cc(C(C)C)c2cc(-n3nc(CO)n(CC)c3=O)c(F)cc2n1         6.57
2  CCn1c(CO)nn(-c2cc3c(C(C)C)cn(-c4cc(OC)ncc4C)c(=O)c3cc2F)c1=O         8.68

// moving on: another record for pIC50
What value of pIC50 has been recorded for this entry: `Cc1cc(C(=O)O)c2nc(-c3ccc(-c4ccccc4)cn3)[nH]c2c1`
5.15
